// protein stability index lookup, one value per entry
B1: WDR88 (parent)
chain: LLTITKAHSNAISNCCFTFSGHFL

- Variants of: B1
- EXPERIMENT NOTES: protein stability index of a GFP-peptide fusion (GPS, HEK-293T) (PSI 1-6); higher = more stable;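 further: lentivirally expressed fusions sorted by FACS into six bins by GFP to DsRed ratio, PSI derived from sequencing read proportions per bin multiplied by bin number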
- SETUP CONDITIONS: c terminus: a fixed tail appended
Answer as a number with no unit attached.

Use these answered entries as a reference point.
LLTITKAHSHAISNCCFTFSGHFL [N10H] = 2.75
LLTITKADSNAISNCCFTFSGHFL [H8D] = 3.88
LLTITKAHSNWISNCCFTFSGHFL [A11W] = 2.7
LLTITKAHSNAISNCCFTFSGHWL [F23W] = 3.34
LLTITQAHSNAISNCCFTFSGHFL [K6Q] = 2.29

The recorded protein stability index for HLTITKAHSNAISNCCFTFSGHFL [L1H] is 2.46

The recorded protein stability index for LLTITKAHSNAISNCCFTFSGWFL [H22W] is 3.16

The recorded protein stability index for LLTITKAHSNAISNCCFTFSCHFL [G21C] is 2.31

The recorded protein stability index for LLTITKAHSNAISNCCFTFSGHFC [L24C] is 2.68

The recorded protein stability index for LLTITKAHSNAISNCSFTFSGHFL [C16S] is 2.44
